# TEST_DETAILS: melting temperature; fluorescence melt of hairpins on a sequencing array, two-state fit, raised by 9.35 °C to match UV melts
# PROTOCOL_CONDITIONS: sodium 0.088 M
Rule: Tm below 50 °C gives fulfilled, anything at or above gives not fulfilled.

- SEQUENCE_CONTENT: "GGAGTGCCGAAAGGCTCC (((..(((....))))))"
  ASSIGNED_CLASS: "fulfilled"
- SEQUENCE_CONTENT: "GTCATCGAAAGATACGAC ((((((....)))..)))"
  ASSIGNED_CLASS: "fulfilled"
- SEQUENCE_CONTENT: "CGGCCGGAAACGGTGCCG ((((((....)))..)))"
  ASSIGNED_CLASS: "not fulfilled"
- SEQUENCE_CONTENT: "GCAATGTCGAAAGACTGC (((..(((....))))))"
  ASSIGNED_CLASS: "fulfilled"
- SEQUENCE_CONTENT: "GATCAAAAATTTGATC ((((((....))))))"
  ASSIGNED_CLASS: "fulfilled"
- SEQUENCE_CONTENT: "GATCAAGCAGTTGATC ((((((....))))))"
  ASSIGNED_CLASS: "fulfilled"
- SEQUENCE_CONTENT: "GGCGGACGAAAGTCGCC (((.(((....))))))"
  ASSIGNED_CLASS: "not fulfilled"
- SEQUENCE_CONTENT: "GCGTATGTACGC ((((....))))"
  ASSIGNED_CLASS: "not fulfilled"

Strictly below 50 °C in Tm? GCCCCACGAAAGTGAGGC (((.(((....))).)))
not fulfilled

###

# TEST_DETAILS: melting temperature; fluorescence melt of hairpins on a sequencing array, two-state fit, raised by 9.35 °C to match UV melts
# PROTOCOL_CONDITIONS: sodium 0.088 M
Criterion: Tm meeting or surpassing 50 °C. Met: 1.0. Not met: 0.0.

- SEQUENCE_CONTENT: "CATCGGAAACGATG (((((....)))))"
  ASSIGNED_CLASS: 1.0
- SEQUENCE_CONTENT: "GTGACTGGAAACAGTCGC (.(((((....))))).)"
  ASSIGNED_CLASS: 1.0

Hi, just wondering whether CGCTGCGGAAACGCTGCG (((.(((....))).))) shows Tm of 50 °C or higher.
1.0

Hi, just wondering whether GATCTGGCTCCAGATC ((((((....)))))) shows Tm of 50 °C or higher.
1.0

Hi, just wondering whether GATCAGCAACCTGATC ((((((....)))))) shows Tm of 50 °C or higher.
0.0

Hi, just wondering whether GGATCGGGAAACCGACCC ((.((((....)))).)) shows Tm of 50 °C or higher.
0.0

Hi, just wondering whether GATCGGCAACCGATC ((((((...)))))) shows Tm of 50 °C or higher.
1.0

###

# TEST_DETAILS: folding enthalpy; higher = less favourable; fluorescence melt of hairpins on a sequencing array, two-state fit
# PROTOCOL_CONDITIONS: sodium 0.088 M
MEASURED_PROPERTY: folding enthalpy (kcal/mol)
Enter your answer as a number in kcal/mol; do not include the unit.

Observe how each entry below is paired with its result.
- SEQUENCE_CONTENT: "GGCCCACGAAAGTGGCC (((.(((....))))))"
  MEASURED_PROPERTY: "folding enthalpy"
  RESULT_UNIT: "kcal/mol"
  READOUT_VALUE: -17.8
- SEQUENCE_CONTENT: "GCTCCAGGAAACTGGGGC ((.((((....)))).))"
  MEASURED_PROPERTY: "folding enthalpy"
  RESULT_UNIT: "kcal/mol"
  READOUT_VALUE: -39.6
- SEQUENCE_CONTENT: "GTGATCGAAAGATTTCAC ((((((....)))..)))"
  MEASURED_PROPERTY: "folding enthalpy"
  RESULT_UNIT: "kcal/mol"
  READOUT_VALUE: -14.3

Measured folding enthalpy, GCATGGCGAAAGCTAGGC ((.(.((....)).).)) : -21.6

Measured folding enthalpy, GATCAGGCGCTGATC ((((((...)))))) : -33.8

Measured folding enthalpy, GATCGCGAAAGCGCATC ((((((....))).))) : -15.3

Measured folding enthalpy, GCCCAGGGAAACCCGGGC ((((.((....)).)))) : -37.4

Measured folding enthalpy, GCGGAGACGAAAGTCCGC (((..(((....)))))) : -32

Measured folding enthalpy, GTTGAACGAAAGTTTAAC (((.(((....))).))) : -31.7

Measured folding enthalpy, GCCCACGGAAACACGGGC ((((..(....)..)))) : -24.4

Measured folding enthalpy, GATGTGGAAACACATC ((((((....)))))) : -35.5

Measured folding enthalpy, GCGTGGCGAAAGCTTCGC (((..((....))..))) : -23.6
